- methodDescription: growth suppression of yeast trafficking mutant, preliminary HTS, modulators of trafficking downstream of Golgi apparatus project, 1536-format plate, OD 615 nm (AID 637)
- measurementConditions: yeast transport mutant growth, absorbance 615 nm, 18 h; active compounds read high
Activity calls are given as the source filed them. No stated cut-off is given here; in the data, active means inhibition above about 30%; inactive means the rest.
Listed compounds paired with reported inhibition

# annotated cases, reported inhibition shown
compound | valueObserved
CC(C)(C)n1ncc2c(=O)n(CC(=O)NCCc3ccccc3)cnc21 | -6.13% (inactive)
COc1ccc(C2=Nn3c(nnc3-c3cccnc3)SC2)cc1 | 0.48% (inactive)
CC12CCC(C(=O)N3CCCCC3)(CC1=O)C2(C)C (configuration not stated) | -0.83% (inactive)
Cc1ccc(N2C(=O)c3ccccc3C2O)nc1 (configuration not stated) | -1.83% (inactive)
Cn1c(CNc2nc(-c3ccccc3)cs2)nnc1SCC(=O)N1CCc2ccccc21 | 7.14% (inactive)
CSc1ccc(-c2nc(CSCC(=O)N3CCOCC3)c(C)o2)cc1 | -2.26% (inactive)

Shift focus to the following entry.
stdin: Give me measured inhibition, please, for this compound: CCN(CCNC(=O)CS(=O)(=O)Cc1nc(-c2cccc(OC)c2)oc1C)c1ccccc1
stdout: -0.48% (inactive)

* * *

Her2 level for assorted compounds
- tgt: Receptor tyrosine-protein kinase erbB-2 (Homo sapiens)
- methodDescription: reducers of endogenous Her2 protein level, primary screen, SKBR3 breast tumor cells, AlphaScreen, ATP viability (AID 461);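 further: lower value means less Her2 protein in the cells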
- measurementConditions: 18-24 h, at 10 µM, active compounds read low
Hi! Could you send only the number? It should be in %, unit omitted.

Some solved entries appear below for comparison.
compound | tgt | valueKind | valueObserved
CCC(OC(=O)c1cccs1)C(=O)NCc1ccco1 (stereo not drawn) | Receptor tyrosine-protein kinase erbB-2 (Homo sapiens) | Her2 level | 93
O=C(CCSc1nc(-c2ccco2)cc(C(F)(F)F)n1)Nc1ccc2c(c1)OCO2 | Receptor tyrosine-protein kinase erbB-2 (Homo sapiens) | Her2 level | 94.5
CC(C)c1nnc(NC(=O)c2cnccn2)s1 | Receptor tyrosine-protein kinase erbB-2 (Homo sapiens) | Her2 level | 88.5
O=C(C1CC1)N1CCC(c2nc(-c3ccc(S(=O)(=O)NCC4CCCO4)cc3)no2)CC1 (stereo not drawn) | Receptor tyrosine-protein kinase erbB-2 (Homo sapiens) | Her2 level | 114
COc1ccc(C)cc1NC(=O)c1nc2nc(C)cc(C)n2n1 | Receptor tyrosine-protein kinase erbB-2 (Homo sapiens) | Her2 level | 76
CCCCOc1cccc(NC(=O)CSc2nccn2C)c1 | Receptor tyrosine-protein kinase erbB-2 (Homo sapiens) | Her2 level | 81.5

stdin: Read off the recorded Her2 level for O=C1C2CC=C(Cl)CC2C(=O)N1c1ncn[nH]1 (stereo not drawn)
stdout: 96

stdin: Report measured Her2 level; entry is COc1ccc(C(=O)NCCn2ccc3ccccc32)c(OC)c1
stdout: 81

stdin: Please give the documented Her2 level of CC(C)CC(c1nnnn1CC1CCCO1)N1CCN(Cc2ccc3c(c2)OCO3)CC1 (stereo not drawn)
stdout: 70

stdin: Given the compound CCOc1cc(C(=O)Nc2ccon2)cc(OCC)c1OCC , write its reported Her2 level.
stdout: 110

stdin: # return recorded Her2 level for input CN(C)c1nc(Oc2ccc(=O)n(C)n2)nc(N2CCOCC2)n1
stdout: 98.5

stdin: Identify measured Her2 level associated with COc1ccccc1OCCOc1ccccc1/C=N/n1cnnc1
stdout: 104

stdin: Let me know recorded Her2 level for Cc1ccccc1-c1noc(N)c1C#N , thanks.
stdout: 70.5

stdin: Tell me its Her2 level given Cc1nc2ccccc2c2oc(C(=O)NCc3ccccn3)cc12 as the entry.
stdout: 88

stdin: Using the record for CCNC(=O)COc1ccc(Br)cc1Cl , state its measured Her2 level.
stdout: 91

stdin: Fill in Her2 level for record Clc1ccc(Cl)c(-c2ccc(/C=N/c3ncn[nH]3)o2)c1
stdout: 81

stdin: Output measured Her2 level for this item: COc1ccc(C(=O)Nc2cccc(-c3nc4ncccc4o3)c2C)cc1OC
stdout: 122

stdin: Report Her2 level, nothing else, for this compound: O=C(c1cnn2c(C(F)(F)F)cc(-c3ccco3)nc12)N1CCc2ccccc2C1
stdout: 112

stdin: Note down Her2 level recorded for COC(=O)CCSCc1cn2cc(Cl)ccc2n1
stdout: 106

stdin: Specify reported Her2 level for the compound shown: O=C(CSc1ncnc2c1oc1ccccc12)NCc1ccco1
stdout: 60

stdin: Let me know recorded Her2 level for COc1ccccc1N1CCN(C(=O)CSc2nc(-c3ccccc3)cc(=O)[nH]2)CC1 , thanks.
stdout: 124

stdin: Quote Her2 level reported for CNC(=O)CC(C(=O)O)c1ccc(OCC(C)C)cc1 (stereo not drawn) please.
stdout: 102

stdin: Retrieve Her2 level measured for CCOC(=O)c1c(NC(=O)c2nn(CC)cc2Br)c(C#N)cn1-c1ccccc1 and print it.
stdout: 90
